tested on: CHO; assay: In vitro cytotoxicity against CHO cancer cell lines.; type: functional; details: Cricetulus griseus, read-out: TD50 (the source's name)
RECORDED METRIC: log10 CC50 (log10 of the value in µg/mL)
# values: log10(CC50), units µg/mL

A selection of reference data follows.
IN: Provide value of log10 CC50 for this record tested with CHO: CCOC(=O)c1cc(NC(=O)c2cc(NC3=CC4=NCCc5cn(C)c(c54)C3=O)cn2COC)cn1COC
OUT: 0.62

IN: Provide value of log10 CC50 for this record tested with CHO: CCOC(=O)c1cc(NC(=O)c2cc(NC(=O)c3cc(NC4=CC5=NCCc6cn(C)c(c65)C4=O)cn3COC)cn2COC)cn1COC
OUT: 0.69

IN: Provide value of log10 CC50 for this record tested with CHO: COc1cccc2c1C(=O)c1c(O)c3c(c(O)c1C2=O)C[C@@](O)(C(=O)CO)C[C@@H]3O[C@H]1C[C@H](N)[C@H](O)[C@H](C)O1
OUT: -1.30

IN: Provide value of log10 CC50 for this record tested with CHO: COCn1cc(NC(=O)c2cc(NC3=CC4=NCCc5cn(C)c(c54)C3=O)cn2COC)cc1C(=O)NCCCN(C)C
OUT: 1.24

IN: Provide value of log10 CC50 for this record tested with CHO: CCOC(=O)c1cc(NC2=CC3=NCCc4cn(C)c(c43)C2=O)cn1COC
OUT: -0.15

---
IN: Provide value of log10 CC50 for this record tested with CHO: COCn1cc(NC(=O)c2cc(NC(=O)c3cc(NC4=CC5=NCCc6cn(C)c(c65)C4=O)cn3COC)cn2COC)cc1C(=O)NCCCN(C)C
OUT: -0.05

IN: Provide value of log10 CC50 for this record tested with CHO: COCn1cc(NC2=CC3=NCCc4cn(C)c(c43)C2=O)cc1C(=O)NCCCN(C)C
OUT: 1.69

Where do these numbers come from? They come from ChEMBL document CHEMBL1129715.
